Target: UniProt:B2RQ46
Sequence (B2RQ46 1-307): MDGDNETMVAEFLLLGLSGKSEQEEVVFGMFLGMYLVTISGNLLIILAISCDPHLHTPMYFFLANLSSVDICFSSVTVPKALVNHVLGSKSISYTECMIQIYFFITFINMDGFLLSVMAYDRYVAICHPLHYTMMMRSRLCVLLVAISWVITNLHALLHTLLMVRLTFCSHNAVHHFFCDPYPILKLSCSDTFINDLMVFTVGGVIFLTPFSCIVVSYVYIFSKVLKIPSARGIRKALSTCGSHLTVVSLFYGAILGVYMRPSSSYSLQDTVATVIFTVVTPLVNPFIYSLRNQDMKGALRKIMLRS
Experiment: GloSensor cAMP luminescence in Hana3A cells, vapor-phase odorant
Format: cell-based

{"molecule": "CC(=O)c1ccccc1 [acetophenone]", "EC50": "161 µM"}
